FYI, the data here is from paper PMC8196545.

Assay target: HIV-1 NL4-3 Env on infected cells (HIV-1 group M subtype B, NL4-3 (pNL4-3 …, strain))
Reported property: binding result

c7488 (antibody, V domains shown) VH: QVRLEQWGGGLLKPSETLSLTCAAWDDNFHRYHWTWVRQFPGGRLQWIGQCEPFGAIKSNPSLGGRAGLSLDDSLRRFILTLRSLNVADTGVYFCVRGPERFHQPHFYYQGLGLWGPGSPVIVSS VL: DVELTQSPLSLSVNPGESVSLFCRSTESLRNANGHDYLDWYVQKPGQSPQILIFLGSGRASGLPDRITASGSGSAFTLRIDKVEADDVGVYYCMQSIQLPRTFGQGTRLEIK = binds
c27194 (antibody, V domains shown) VH: QVHLVQSGDELKKPGSSVKVSCTAAGGTLNKYPITWVRQAPGQGLEWMGTLSPLFGTTDYGQKFQGRLTITTDGSAAHMVLAALTPDDTAVYFCATDKAMGVLPALHFWGQGTLITVSS VL: EIVLTQSPGTLFLSPGERASLSCRASQNIGGLLAWYQQKPGQSPRLLIYDASNRATGIPARFSGSGSGTDFTLTISSLEPGDIAIYFCQQRSSWPVTFGGGTKVQIK = binds
